Tested on: UACC-62 melanoma
testDescription: NCI-60 one-dose screen, 48 h
conditionDescription: 10 µM unless noted
Compounds without any hit were thinned out: in the full panel of roughly 83,000, 20% have a hit. Activity calls are given as the source filed them. Rule for the calls: active = growth percent below 10; inactive = the rest.
Output constraint: value belongs to active, inactive

# count of solved cases: 5
>>> classlabel("COc1ccccc1CNCCCN1C(=O)c2ccc3c4c(ccc(c24)C1=O)C(=O)N(CCCNCc1ccccc1OC)C3=O")
"active"
>>> classlabel("Cc1nn(-c2ccccc2)c(N)c1N=C1NC(=O)/C(=C/c2ccc(Cl)cc2)S1")
"inactive"
>>> classlabel("Oc1ccc(N=Nc2ccc(N=Nc3ccccc3)cc2)cc1")
"active"
>>> classlabel("CC(=O)N1CCN(CCNC(=O)n2cc(-c3ccncc3)c(-c3cc(O)cc(Cl)c3)n2)CC1")
"inactive"
>>> classlabel("COc1cc2ncnc(-n3ncc4cc(NC(=O)Nc5ccc(Cl)c(C)c5)ccc43)c2cc1OC")
"inactive"

What was the test verdict on CC[C@H](Nc1ncnc2nc[nH]c12)c1nc2cccc(NCc3ccc(C(=O)NO)nc3)c2c(=O)n1-c1ccccc1 ?
inactive

What was the test verdict on Nc1cc2c(cc1Br)[nH]c(=O)c1ccccc12 ?
inactive

What was the test verdict on CCCCCCNc1nc(N2CCOCC2)c2[nH]c(NCCCCCC)nc2n1 ?
active

What was the test verdict on COC(=O)[C@H](Cc1cn(C)cn1)NC(=O)[C@@H](NC(=O)Nc1cc(C(F)(F)F)cc(C(F)(F)F)c1)C(C)(C)C ?
active

====

Overview of recorded growth for various molecules
Tested on: UACC-257 melanoma
testDescription: NCI-60 one-dose screen, 48 h (100 = growth as untreated, 0 = no growth, -100 = all killed)
conditionDescription: 10 µM unless noted
About 83,000 compounds went through this panel and 20% of them were active in at least one assay; those are over-represented in the sample as a whole.
Your answer is read as %, so omit the unit and give the number.

These recorded examples may help you get a feel for the data.
>>> testvalue("CC(=O)c1cc(Nc2cc(C)nc(N)n2)cc(C(C)=O)c1")
103
>>> testvalue("CC(=O)Nc1nc(C)c(C(=O)NNS(=O)(=O)c2ccccc2)s1")
103
>>> testvalue("CCCNC(=O)Oc1ccc(/C(=C(/C)Cc2ccc(OC)cc2)c2ccc(OCCN3CCCCC3)cc2)cc1")
93.7
>>> testvalue("COc1ccc(-c2cc(C#N)c(NNC(C)=O)[nH]2)cc1")
108
>>> testvalue("COC(=O)C(N)CC(C)C (stereo not given)")
102
>>> testvalue("CC(CCN1CCN(CCC(C)CC(C)(C)C)C1CC(C)CC(C)(C)C)CC(C)(C)C (stereo not given)")
107

Provide measured growth on UACC-257 melanoma for COc1cc2c(c(OC)c1OC)C(=O)CC(c1cccc(C(=O)Nc3cccc(Br)c3)c1)O2 (stereo not given) please.
76.8

Provide measured growth on UACC-257 melanoma for CC1(C)NCCC[C@]2(C)[C@H]3CC=C4[C@@H]5C[C@](C)(COC(=O)c6ccccc6C(=O)O)CC[C@]5(C)CC[C@@]4(C)[C@]3(C)CC[C@@H]12 please.
67.8

Provide measured growth on UACC-257 melanoma for O=C(Nc1ccc(-n2cc(-c3ccncc3)c(-c3ccc(Cl)c(O)c3)n2)cc1)c1cc(Cl)cc(Cl)c1 please.
54.7

Provide measured growth on UACC-257 melanoma for CCCCN(CCC)CCCCCCCCCCN1CCCc2ccccc21 please.
106

Provide measured growth on UACC-257 melanoma for COc1ccc(-c2nc(N)n(C(=S)Nc3ccccc3)n2)cc1 please.
105
